I'd be grateful if you could share measured pIC50 for these entries.
experimental.target: UniProt:Q14416
Sequence (Q14416 19-872): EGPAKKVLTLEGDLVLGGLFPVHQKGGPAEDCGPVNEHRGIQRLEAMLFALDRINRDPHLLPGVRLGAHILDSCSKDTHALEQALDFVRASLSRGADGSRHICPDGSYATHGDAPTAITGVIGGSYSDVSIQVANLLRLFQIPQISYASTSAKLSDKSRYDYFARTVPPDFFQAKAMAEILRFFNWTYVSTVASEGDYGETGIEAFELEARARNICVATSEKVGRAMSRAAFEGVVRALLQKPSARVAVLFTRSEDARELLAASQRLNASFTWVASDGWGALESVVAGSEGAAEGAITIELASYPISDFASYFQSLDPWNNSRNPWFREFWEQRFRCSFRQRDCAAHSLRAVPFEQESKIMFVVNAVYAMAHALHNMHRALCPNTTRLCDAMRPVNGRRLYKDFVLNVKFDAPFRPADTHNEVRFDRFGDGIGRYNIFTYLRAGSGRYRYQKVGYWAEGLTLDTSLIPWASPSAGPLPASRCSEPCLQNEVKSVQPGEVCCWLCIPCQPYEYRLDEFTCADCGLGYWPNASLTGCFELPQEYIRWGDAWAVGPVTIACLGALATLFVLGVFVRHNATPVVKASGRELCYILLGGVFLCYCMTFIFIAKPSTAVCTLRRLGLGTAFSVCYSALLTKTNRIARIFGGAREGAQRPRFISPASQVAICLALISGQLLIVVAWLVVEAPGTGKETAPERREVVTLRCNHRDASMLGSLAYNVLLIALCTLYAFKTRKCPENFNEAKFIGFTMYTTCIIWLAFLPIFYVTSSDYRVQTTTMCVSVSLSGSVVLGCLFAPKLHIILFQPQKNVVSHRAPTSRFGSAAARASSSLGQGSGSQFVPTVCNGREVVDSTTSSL
procedure.text: [35S]GTPγS binding assay (Affinity to mGluR2)
Type: biochemical
setup.conditions: cell membrane fraction of HEK293 cells stably expressing human mGluR2; glutamic acid 10 μM; inhibition of specific [35S]GTPγS binding
Answers are plain numbers, as −log10 of the molar value.

# map each compound to its pIC50
1. CCOc1cc(-c2nc(-c3cc(C)nc(C)c3)c3n2C[C@@H](C)OCC3)ccc1CC [Example 220]
2. Cc1cc(-c2nc(-c3ccc(F)c(OC(F)(F)F)c3)n3c2CCO[C@H](C)C3)ccn1 [Example 158]
3. Cc1cc(-c2nc(-c3ccc(F)c(OC(F)F)c3)n3c2CCO[C@H](C)C3)cc(C)n1 [Example 184]
4. Cc1cc(-c2nc(-c3ccc(OC(C)C)c(C)c3)n3c2CCO[C@H](C)C3)cc(C)n1 [Example 242]

1: 8.23; 2: 7.35; 3: 7.86; 4: 8.62

Required: pIC50, one value per compound below.
1. COc1cc(-c2nc(-c3cc(C)nc(CO)c3)c3n2C[C@@H](CF)OCC3)ccc1C(F)(F)F [Example 156]
2. COc1cc(-c2nc(-c3cc(C)nc(CF)c3)c3n2C[C@@H](CF)OCC3)ccc1OC(F)F [Example 209]
3. Cc1cc(-c2nc(-c3ccc(OC(F)(F)F)c(CF)c3)n3c2CCO[C@H](C)C3)cc(C)n1 [Example 231]

8.14
8.29
8.62
